System: Daphnia magna
Assay: 48 h LC50 (-log10 mol/L); higher = more toxic
experimentalEndpoint: 48 h LC50 (-log10 mol/L)
Write the number on its own, no unit after it.

Please review the following examples before continuing.
NC(=O)c1c(Cl)cccc1Cl    2.35
CCOP(=O)(NC(C)C)Oc1ccc(SC)c(C)c1 (configuration not stated)    8.11
COc1ccc2nc(S(=O)Cc3ncc(C)c(OC)c3C)[nH]c2c1 (configuration not stated)    3.59
CC(C)CO    1.82
c1ccc2c(c1)-c1cccc3cccc-2c13    6.28
CC(c1ccc(Cl)cc1)c1ccc(Cl)cc1    6.86
CC1=CC(=O)CC(C)(C)C1    3.06
CC(N)=S    3.64
NC[C@@H]1O[C@H](O[C@H]2[C@@H](O)[C@H](O[C@@H]3[C@@H](O)[C@H](N)C[C@H](N)[C@H]3O[C@H]3O[C@H](CO)[C@@H](O)[C@H](O)[C@H]3N)O[C@@H]2CO)[C@H](N)[C@@H](O)[C@@H]1O    3.09
ClC(Cl)(Cl)C(Cl)(Cl)Cl    4.93

// query Give reported 48 h LC50 (-log10 mol/L) value for `CC(C)C(=O)Nc1ccc([N+](=O)[O-])c(C(F)(F)F)c1`
// result 5.3

// query Please list 48 h LC50 (-log10 mol/L) recorded for the molecule `CCOC(C)=O`
// result 2.09

// query State its 48 h LC50 (-log10 mol/L) for this molecule: `COCC(=O)N(c1c(C)cccc1C)[C@H](C)C(=O)OC`
// result 3.54

====

Tested on: Daphnia magna
Experiment: 48 h LC50 (-log10 mol/L); higher = more toxic
Returns Fulfilled if the recorded 48 h LC50 (-log10 mol/L) is greater than or equal to 4, and Not fulfilled otherwise.

CCCO    Not fulfilled
Cc1nc(N(C)C)nc(OC(=O)N(C)C)c1C    Fulfilled
Brc1ccc(Oc2cc(Br)c(Br)cc2Br)c(Br)c1    Fulfilled
CC(C)(Oc1ccc(Cl)cc1)C(=O)O    Not fulfilled
c1ccncc1    Not fulfilled

// query Does the compound `COc1c(O)cc(Cl)c(Cl)c1Cl` have recorded 48 h LC50 (-log10 mol/L) that is 4 or more?
// result Fulfilled

====

Recorded 96 h LC50 (-log10 mol/L), one value per entry.
System: Pimephales promelas
Experiment: 96 h LC50 (-log10 mol/L); higher = more toxic
Form field (numeric): enter value without unit.

O=S(=O)([O-])c1ccc[n+](Cc2ccccc2)c1    2.02
COc1ccc(O)cc1    3.11
Cc1ccc([N+](=O)[O-])cc1    3.44
CCCCOC(=O)CCC(=O)OCCCC    4.71
O=Cc1ccc(Oc2ccccc2)cc1    4.63
CCNc1nc(NC(C)C)nc(SC)n1    4.38

// query Quote 96 h LC50 (-log10 mol/L) reported for `OCCCCl` please.
// result 2.07

// query Give the reported value of 96 h LC50 (-log10 mol/L) for this record: `CC1=CC(=O)c2ccccc2C1=O`
// result 6.2

// query # return recorded 96 h LC50 (-log10 mol/L) for input `Cc1cccc([N+](=O)[O-])c1`
// result 3.64

====

Tested on: Daphnia magna
Test: 48 h LC50 (-log10 mol/L); higher = more toxic
experimentalEndpoint: 48 h LC50 (-log10 mol/L)
The answer should be written as a number, with no unit following it.

Consider the following illustrative entries.
CCOC(=O)CC(SP(=S)(OC)OC)C(=O)OCC (stereo not drawn)    8.35
CCCC1COC(Cn2cncn2)(c2ccc(Cl)cc2Cl)O1 (stereo not drawn)    4.72

Query compound follows.
// query Quote 48 h LC50 (-log10 mol/L) reported for `CC(C)(c1ccc(O)cc1)c1ccc(O)cc1` please.
// result 4.3

====

Tested on: Tetrahymena pyriformis
Test: 48 h IGC50 (-log10 mol/L); higher = more toxic
experimentalEndpoint: 48 h IGC50 (-log10 mol/L)
Please respond with just the number, no unit label.

O=[N+]([O-])c1cc(Br)cc(F)c1O    4.62
O=[N+]([O-])c1cc(Br)c(O)c(Br)c1    4.36
O=C(O)c1ccccc1Br    2.53
Nc1cc(F)c([N+](=O)[O-])cc1[N+](=O)[O-]    4.69
CC(=O)OC(C)(C)C    1.51
O=[N+]([O-])c1ccc(Br)cc1    3.38
Nc1ccc(F)cc1    3.59
CCC[N+](=O)[O-]    2.01

// query Please look at `OCc1ccc(Cl)cc1` and tell me its recorded 48 h IGC50 (-log10 mol/L) on Tetrahymena pyriformis.
// result 3.25

// query Fill: 48 h IGC50 (-log10 mol/L) (Tetrahymena pyriformis) for this compound `CCCCCOc1ccc(C=O)cc1`
// result 4.18

// query Name the value of 48 h IGC50 (-log10 mol/L) reported for `Oc1c(Cl)c(Cl)cc(Cl)c1Cl` when tested on Tetrahymena pyriformis.
// result 5.22

// query For Tetrahymena pyriformis, give 48 h IGC50 (-log10 mol/L) of the listed compound: `O=[N+]([O-])c1cc([N+](=O)[O-])c(F)cc1F`
// result 5.08

// query Under Tetrahymena pyriformis: report 48 h IGC50 (-log10 mol/L) of `Cc1ccc(N)cc1N` .
// result 2.34

// query Write 48 h IGC50 (-log10 mol/L) of `N#Cc1ccccc1O` ; system used: Tetrahymena pyriformis
// result 3.04

// query Answer briefly: 48 h IGC50 (-log10 mol/L) recorded on Tetrahymena pyriformis for `CNc1ccc(C(=O)OC)cc1`
// result 3.31

// query System Tetrahymena pyriformis. Read-out 48 h IGC50 (-log10 mol/L). Item `CC(C)OC(=O)CC#N` . Report value.
// result 2.05

// query GET 48 h IGC50 (-log10 mol/L) | system: Tetrahymena pyriformis | item: `COC(=O)c1ccc(C(=O)OC)c([N+](=O)[O-])c1`
// result 3.43

// query Print Tetrahymena pyriformis 48 h IGC50 (-log10 mol/L) for CCC(C)OC(C)=O (stereo unspecified) .
// result 2.32

// query State the measured 48 h IGC50 (-log10 mol/L) (Tetrahymena pyriformis) of `CC(=O)c1ccc(Cl)c(Cl)c1Cl`
// result 4.34

// query Find the measured 48 h IGC50 (-log10 mol/L) of `C/C(=N\O)C(=O)c1ccccc1` with Tetrahymena pyriformis as test system.
// result 2.96

// query GET 48 h IGC50 (-log10 mol/L) where system = Tetrahymena pyriformis and item = `Oc1cccnc1Br`
// result 3.15

// query Fetch value of 48 h IGC50 (-log10 mol/L) on Tetrahymena pyriformis for `O=[N+]([O-])c1cnc(Cl)c([N+](=O)[O-])c1` .
// result 5.64

// query Give the observed 48 h IGC50 (-log10 mol/L) of `COC(=O)c1cc(Cl)ccc1Cl` for Tetrahymena pyriformis.
// result 3.81

// query Look up Tetrahymena pyriformis data: 48 h IGC50 (-log10 mol/L) of `CCCCCCCCCCCC#N` , then report it.
// result 4.9

// query # lookup: Tetrahymena pyriformis 48 h IGC50 (-log10 mol/L), key = `ClCCc1ccccc1`
// result 3.17

// query Provide 48 h IGC50 (-log10 mol/L), tested on Tetrahymena pyriformis, for CCC(C)CN (stereo unspecified) .
// result 2.52

// query Report 48 h IGC50 (-log10 mol/L) under test system Tetrahymena pyriformis for `CCCCCCC(=O)CCCCCC` .
// result 4.52

// query Under Tetrahymena pyriformis, report 48 h IGC50 (-log10 mol/L) for `CC(C)(C)CCO`
// result 2.26

// query Write down the reported 48 h IGC50 (-log10 mol/L) (system: Tetrahymena pyriformis) of `O=[N+]([O-])c1cccc(O)c1`
// result 3.51

// query Fetch value of 48 h IGC50 (-log10 mol/L) on Tetrahymena pyriformis for `CCSCC` .
// result 2.02

====

Test system: Pimephales promelas
Experiment: 96 h LC50 (-log10 mol/L); higher = more toxic
The label depends only on 96 h LC50 (-log10 mol/L): met if it is at least 4, not met if it is smaller.

Would you please look over these solved cases?
Clc1ccccc1    not met
CC(C)=CCC/C(C)=C/CO    met
Cc1cccnc1    not met
Cc1nc(C)c(C)o1    not met
CCOC(=O)CCCCCCCCC(=O)OCC    met
CC(C)(C)c1ccc(CSc2cnn(C(C)(C)C)c(=O)c2Cl)cc1    met

// query Can `CC(C)(O)C(Cl)(Cl)Cl` be said to have 96 h LC50 (-log10 mol/L) at or above 4?
// result not met

====

Tested on: Tetrahymena pyriformis
Assay: 48 h IGC50 (-log10 mol/L); higher = more toxic
experimentalEndpoint: 48 h IGC50 (-log10 mol/L)
// no unit string in output, number only

OCc1cccc2ccccc12    3.13
CCOC(=O)CCl    4.06
N#CCC#N    3.22

// query Check the records and state 48 h IGC50 (-log10 mol/L) for `CCCCC(=O)c1ccccc1`
// result 3.56

// query Quick one: give measured 48 h IGC50 (-log10 mol/L) for `OC1CCCCC1`
// result 2.23

// query // Input: `CCOC(=O)C=C(OCC)OCC` . Output its 48 h IGC50 (-log10 mol/L) only.
// result 2.35

// query For `OCc1ccccc1I` , write its 48 h IGC50 (-log10 mol/L).
// result 3.33

// query Return 48 h IGC50 (-log10 mol/L) for the following compound: `CCOC(=O)CCBr`
// result 3.13

// query Please give the documented 48 h IGC50 (-log10 mol/L) of `O=[N+]([O-])c1cc(Cl)cc(Cl)c1`
// result 4.13

// query Fill in reported 48 h IGC50 (-log10 mol/L) for this entry: `OCc1ccc(-c2ccccc2)cc1`
// result 3.92

// query Recall and state the measured 48 h IGC50 (-log10 mol/L) for `CCC(=O)N(C)C` .
// result 1.43

// query Report 48 h IGC50 (-log10 mol/L), nothing else, for this compound: `O=[N+]([O-])c1ccc(F)cc1`
// result 3.1

// query Quote 48 h IGC50 (-log10 mol/L) reported for `O=[N+]([O-])c1cccc2cccnc12` please.
// result 3.08

// query Answer with the recorded 48 h IGC50 (-log10 mol/L) of `CCCCCCCC=CCO` only.
// result 4.13
